- ASSAY_TEXT: Quantitative High-Throughput drug screen in 47 multiple myeloma cell lines against the NCATS MIPE library collection: OPM1_PLB cell viability assay (AID 1918989); note: nearly all actives have a fitted effect of over 40% in size; note: potency is the fitted concentration of half-maximal effect
- STUDY_CONDITIONS: CellTiter-Glo, 48 h; series mostly up to 45.8 µM
Results filed as inconclusive are left out. Calls of active or inactive are those of the source. Calls come from the whole dose curve; as a rule, active = well fitted cell-killing curve with a large enough effect; inconclusive = small, poorly fitted or top-dose-only effect, or effect the other way; inactive = no such curve, though single readings can be large or run the other way.
EXPERIMENTAL_READOUT: Potency

INSERT INTO measurements (compound, experimental_readout, readout_value) VALUES
  ('COC[C@@H](NC(C)=O)C(=O)NCc1ccccc1', 'Potency', 'inactive'),
  ('O=P1(NCCCl)OCCCN1CCCl (stereo unspecified)', 'Potency', '16.6 µM (active)'),
  ('CC(O)(CS(=O)(=O)c1ccc(F)cc1)C(=O)Nc1ccc(C#N)c(C(F)(F)F)c1 (stereo unspecified)', 'Potency', '3.32 µM (active)'),
  ('O=C(O)C(=O)c1cn(Cc2ccccc2)c2ccc(-c3ccc(OC(F)(F)F)cc3)cc12', 'Potency', 'inactive'),
  ('Cn1cc(C2=C(c3cn(C4CCN(Cc5ccccn5)CC4)c4ccccc34)C(=O)NC2=O)c2ccccc21', 'Potency', '16.6 µM (active)'),
  ('CNC(=O)N1N=C(c2ccc(N)cc2)c2cc3c(cc2CC1C)OCO3 (stereo unspecified)', 'Potency', '4.69 µM (active)');

====

- ASSAY_TEXT: Quantitative High-Throughput drug screen in 47 multiple myeloma cell lines against the NCATS MIPE library collection: KMS28BM_JCRB cell viability assay (AID 1919874); note: nearly all actives have a fitted effect of over 35% in size
- STUDY_CONDITIONS: CellTiter-Glo ATP, 48 h; series mostly up to 45.8 µM
- Source text: PI: Beverly A. Mock Ph.D. Laboratory of Cancer Biology and Genetics, Center for Cancer Research, National Cancer Institute, National Institute of Health, Bethesda, Maryland […] 5; Detector; 425V; Luminescence; Viewlux PerkinElmer. […] 1. […] Briefly, the corresponding myeloma cell lines were screened in 1,536-well plates with 500 cells, 5-uL per well for inhibition of cell viability (assessed by measuring ATP levels with CellTiterGlo). […]
Records with an inconclusive call do not appear. Calls of active or inactive are those of the source. Calls come from the whole dose curve; as a rule, active = well fitted cell-killing curve with a large enough effect; inconclusive = small, poorly fitted or top-dose-only effect, or effect the other way; inactive = no such curve, though single readings can be large or run the other way.
Possible outcomes: Y = active, N = inactive

INSERT INTO assay_data (compound, class_assignment) VALUES
  ('O=C1CC[C@@]2(O)[C@H]3Cc4ccc(O)c5c4[C@@]2(CCN3CC2CC2)[C@H]1O5', 'N'),
  ('N[C@@H](Cc1ccc(N(CCCl)CCCl)cc1)C(=O)O', 'Y'),
  ('Cc1cccc(C)c1NC(=O)CN1CCCC1=O', 'N'),
  ('Cn1c(CCCC(=O)O)nc2cc(N(CCCl)CCCl)ccc21', 'N'),
  ('CC(O)(CS(=O)(=O)c1ccc(F)cc1)C(=O)Nc1ccc(C#N)c(C(F)(F)F)c1 (stereo unspecified)', 'N'),
  ('Cn1cc(C2=C(c3cn(C4CCN(Cc5ccccn5)CC4)c4ccccc34)C(=O)NC2=O)c2ccccc21', 'N');

====

- TARGET_ENTITY: Furin (Homo sapiens)
- ASSAY_TEXT: Furin counterscreen qHTS for Zika virus inhibitors (AID 1347149); note: nearly all actives have a fitted effect of over 70% in size
- STUDY_CONDITIONS: furin enzymatic counterscreen, fluorogenic substrate; series mostly up to 57.5 µM
Results filed as inconclusive are left out. Calls of active or inactive are those of the source. Calls come from the whole dose curve; as a rule, active = well fitted inhibition curve with a large enough effect; inconclusive = small, poorly fitted or top-dose-only effect; inactive = no such curve, though single readings can be large or run the other way.
Possible outcomes: Yes (active), No (inactive)

INSERT INTO results (molecule, target_entity, class_assignment) VALUES
  ('O=c1oc2ccccc2c(O)c1C(CC(O)c1ccc(-c2ccc(Br)cc2)cc1)c1ccccc1 (stereo unspecified)', 'Furin (Homo sapiens)', 'Yes'),
  ('Cc1ccc(-c2nc3ccc(C)cn3c2CC(=O)N(C)C)cc1', 'Furin (Homo sapiens)', 'Yes'),
  ('N[C@@H](Cc1ccc(Oc2cc(I)c(O)c(I)c2)c(I)c1)C(=O)O', 'Furin (Homo sapiens)', 'Yes'),
  ('CCN(C(C)=O)c1cccc(-c2ccnc3c(C#N)cnn23)c1', 'Furin (Homo sapiens)', 'Yes'),
  ('C[C@@H]1O[C@@H](O[C@H]2C[C@@H](O)[C@]3(CO)[C@H]4[C@H](O)C[C@]5(C)[C@@H](C6=CC(=O)OC6)CC[C@]5(O)[C@@H]4CC[C@]3(O)C2)[C@H](O)[C@H](O)[C@H]1O', 'Furin (Homo sapiens)', 'No'),
  ('C[C@H]1O[C@@H](O[C@H]2[C@@H](O)C[C@H](O[C@H]3[C@@H](O)C[C@H](O[C@H]4CC[C@@]5(C)[C@H](CC[C@@H]6[C@@H]5CC[C@]5(C)[C@@H](C7=CC(=O)OC7)CC[C@]65O)C4)O[C@@H]3C)O[C@@H]2C)C[C@H](O)[C@@H]1O', 'Furin (Homo sapiens)', 'No');

====

- ASSAY_TEXT: qHTS for Inhibitors of the Functional Ribonucleoprotein Complex (vRNP) of Lassa (LASV) Arenavirus: LASV Primary Screen - GLuc reporter signal (AID 1347082); note: nearly all actives have a fitted effect of over 60% in size
- STUDY_CONDITIONS: LASV minigenome vRNP, Gaussia luciferase reporter; series mostly up to 57.5 µM
Records with an inconclusive call do not appear. Activity calls are given as the source filed them. Calls come from the whole dose curve; tested in HEK293 reporter line.
EXPERIMENTAL_READOUT: outcome

INSERT INTO results (molecule, readout_value) VALUES
  ('C[C@H]1O[C@H](O[C@H]2[C@H](O)[C@@H](O)[C@@H](O[C@H]3[C@H](O)[C@@H](O)[C@H](O)O[C@@H]3CO)O[C@@H]2CO)[C@H](O)[C@@H](O)[C@@H]1N[C@H]1C=C(CO)[C@@H](O)[C@H](O)[C@H]1O', 'inactive'),
  ('Cc1ccc2c(n1)Oc1ccc(C(C)C(=O)OCC(=O)N(C)C)cc1C2 (centres undefined)', 'inactive'),
  ('COc1cc2c(N3CCN(C(=O)Nc4ccc(OC(C)C)cc4)CC3)ncnc2cc1OCCCN1CCCCC1', 'inactive'),
  ('CC(=O)OCC(CCn1cnc2cnc(N)nc21)COC(C)=O', 'inactive'),
  ('COC(=O)[C@@H]1CC2=CC(=O)CC[C@]2(C)[C@@]23O[C@@H]2C[C@@]2(C)[C@@H](CC[C@@]24CCC(=O)O4)[C@H]13', 'inactive'),
  ('NS(=O)(=O)c1cc2c(cc1C(F)(F)F)NCNS2(=O)=O', 'inactive'),
  ('Cc1nccn1CC1CCc2c(c3ccccc3n2C)C1=O (centres undefined)', 'inactive'),
  ('CC[C@@]1(c2ccccc2)NC(=O)N(C)C1=O', 'inactive'),
  ('NP(N)(=O)NC(=O)c1ccc(F)cc1', 'inactive');

====

- TARGET_ENTITY: Nucleoprotein (Lymphocytic choriomeningitis virus (strain Armstrong)) (UniProt P09992)
- Sequence (P09992 whole entry, looked up): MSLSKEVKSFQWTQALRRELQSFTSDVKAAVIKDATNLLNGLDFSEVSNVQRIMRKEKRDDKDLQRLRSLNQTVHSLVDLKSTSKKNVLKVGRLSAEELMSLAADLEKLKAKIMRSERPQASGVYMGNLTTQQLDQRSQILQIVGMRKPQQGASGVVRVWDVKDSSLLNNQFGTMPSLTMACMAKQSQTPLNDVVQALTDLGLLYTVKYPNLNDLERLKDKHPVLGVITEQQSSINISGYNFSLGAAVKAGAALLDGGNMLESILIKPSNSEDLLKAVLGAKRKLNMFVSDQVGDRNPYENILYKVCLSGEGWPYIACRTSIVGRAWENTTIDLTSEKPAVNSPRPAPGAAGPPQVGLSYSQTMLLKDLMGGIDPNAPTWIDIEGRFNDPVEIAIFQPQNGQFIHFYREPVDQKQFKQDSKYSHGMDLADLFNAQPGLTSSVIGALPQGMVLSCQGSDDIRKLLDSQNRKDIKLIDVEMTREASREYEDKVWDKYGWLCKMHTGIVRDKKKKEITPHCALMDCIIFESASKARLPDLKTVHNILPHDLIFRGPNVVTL
- ASSAY_TEXT: qHTS for Inhibitors of the Functional Ribonucleoprotein Complex (vRNP) of Lymphocytic Choriomeningitis Arenaviruses (LCMV): LCMV Primary Screen - GLuc reporter signal (AID 1347086); note: nearly all actives have a fitted effect of over 70% in size
- STUDY_CONDITIONS: LCMV minigenome vRNP cell assay, Gaussia luciferase reporter; series mostly up to 57.5 µM
Inconclusive results are not listed. Activity calls are given as the source filed them. Calls come from the whole dose curve.
Possible outcomes: active, inactive

INSERT INTO results (compound, class_assignment) VALUES
  ('CCn1cc(C(=O)O)c(=O)c2ccc(C)nc21', 'inactive'),
  ('C1N2CN3CN1CN(C2)C3', 'inactive'),
  ('CN(Cc1cnc2nc(N)nc(N)c2n1)c1ccc(C(=O)N[C@@H](CCC(=O)O)C(=O)O)cc1', 'inactive'),
  ('Fc1ccc([C@@H]2CCNC[C@H]2COc2ccc3c(c2)OCO3)cc1', 'inactive'),
  ('O=c1oc2ccccc2c(O)c1C(CC(O)c1ccc(-c2ccc(Br)cc2)cc1)c1ccccc1 (stereo not drawn)', 'inactive'),
  ('COC[C@H]1OC(=O)c2coc3c2[C@@]1(C)C1=C(C3=O)C2CCC(=O)[C@@]2(C)C[C@H]1OC(C)=O (stereo partly drawn)', 'inactive'),
  ('CC(C)C1CCC(C(=O)N[C@H](Cc2ccccc2)C(=O)O)CC1 (stereo partly drawn)', 'inactive'),
  ('Nc1ccncc1', 'inactive'),
  ('O=C1C(=O)c2ccccc2C(O)=C1C1CCC(c2ccc(Cl)cc2)CC1 (stereo not drawn)', 'inactive'),
  ('CC1Cc2ccccc2N1NC(=O)c1ccc(Cl)c(S(N)(=O)=O)c1 (stereo not drawn)', 'inactive'),
  ('CCCCNc1ccc(C(=O)OCCOCCOCCOCCOCCOCCOCCOCCOCCOC)cc1', 'inactive'),
  ('Fc1ccc(C(OCCN2CCN(CCCc3ccccc3)CC2)c2ccc(F)cc2)cc1', 'active'),
  ('CN(C)c1ccc(O)c2c1C[C@H]1C[C@H]3[C@H](N(C)C)C(=O)C(C(N)=O)=C(O)[C@@]3(O)C(=O)C1=C2O', 'inactive'),
  ('O=C(C1CCCCC1)N1CC(=O)N2CCc3ccccc3C2C1 (stereo not drawn)', 'inactive'),
  ('O=C(O)CCCc1ccccc1', 'inactive'),
  ('CNC1(C)C2CCC(C2)C1(C)C (stereo not drawn)', 'inactive'),
  ('O=C(O)CCNC(=O)c1ccc(N=Nc2ccc(O)c(C(=O)O)c2)cc1', 'inactive'),
  ('CC(=O)Nc1cc([As](=O)(O)O)ccc1O', 'inactive'),
  ('CCN(CC)CCOC(=O)C(O)(c1ccccc1)c1ccccc1', 'inactive'),
  ('N=c1nc(N2CCCCC2)cc(N)n1O', 'inactive'),
  ('CC(CCc1ccccc1)NC(C)C(O)c1ccc(O)cc1 (stereo not drawn)', 'inactive'),
  ('N[C@@H](C(=O)N[C@@H]1C(=O)N2C(C(=O)O)=C(Cl)CS[C@H]12)c1ccccc1', 'inactive'),
  ('NC(=O)OCC(COC(N)=O)c1ccccc1', 'inactive');

Data credit: PubChem BioAssay (NCATS)
